- Target Or System: Falcipain 2 (Plasmodium falciparum) (UniProt Q9N6S8)
- Experiment: Inhibition of Plasmodium falciparum recombinant falcipain 2 expressed in Escherichia coli using Z-Leu-Arg-AMC as substrate at 10 uM incubated for 30 min prior to substrate addition measured for 30 min by fluorometric analysis
Experimental Endpoint: inhibition (%)
Write the answer as a number in %, unit excluded.

Asked: // query inhibition value for entry Cc1cc(N/N=C/c2ccc(O[C@H]3O[C@@H]4O[C@@]5(C)CC[C@H]6[C@H](C)CC[C@@H]([C@H]3C)[C@@]46OO5)cc2)c2ccc(Cl)cc2n1
Given back: 88.4

Asked: // query inhibition value for entry Cc1cc(N/N=C/c2ccc(O[C@H]3O[C@@H]4O[C@@]5(C)CC[C@H]6[C@H](C)CC[C@@H]([C@H]3C)[C@@]46OO5)cc2)c2cc(Br)ccc2n1
Given back: 89.8

Asked: // query inhibition value for entry Cc1cc(N/N=C/c2ccc(O[C@H]3O[C@@H]4O[C@@]5(C)CC[C@H]6[C@H](C)CC[C@@H]([C@H]3C)[C@@]46OO5)cc2)c2ccc(C)c(C)c2n1
Given back: 79.4

Asked: // query inhibition value for entry Cc1cc(N/N=C/c2ccc(O[C@H]3O[C@@H]4O[C@@]5(C)CC[C@H]6[C@H](C)CC[C@@H]([C@H]3C)[C@@]46OO5)cc2)c2cc(Cl)ccc2n1
Given back: 88.2

Asked: // query inhibition value for entry Cc1cc(N/N=C/c2ccc(O[C@H]3O[C@@H]4O[C@@]5(C)CC[C@H]6[C@H](C)CC[C@@H]([C@H]3C)[C@@]46OO5)cc2)c2cc(F)ccc2n1
Given back: 88.6

Asked: // query inhibition value for entry Cc1cc(N/N=C/c2ccc(O[C@H]3O[C@@H]4O[C@@]5(C)CC[C@H]6[C@H](C)CC[C@@H]([C@H]3C)[C@@]46OO5)cc2)c2ccccc2n1
Given back: 94.1

---

- Target Or System: Falcipain 2 (Plasmodium falciparum) (UniProt Q9N6S8)
- Sequence (whole entry): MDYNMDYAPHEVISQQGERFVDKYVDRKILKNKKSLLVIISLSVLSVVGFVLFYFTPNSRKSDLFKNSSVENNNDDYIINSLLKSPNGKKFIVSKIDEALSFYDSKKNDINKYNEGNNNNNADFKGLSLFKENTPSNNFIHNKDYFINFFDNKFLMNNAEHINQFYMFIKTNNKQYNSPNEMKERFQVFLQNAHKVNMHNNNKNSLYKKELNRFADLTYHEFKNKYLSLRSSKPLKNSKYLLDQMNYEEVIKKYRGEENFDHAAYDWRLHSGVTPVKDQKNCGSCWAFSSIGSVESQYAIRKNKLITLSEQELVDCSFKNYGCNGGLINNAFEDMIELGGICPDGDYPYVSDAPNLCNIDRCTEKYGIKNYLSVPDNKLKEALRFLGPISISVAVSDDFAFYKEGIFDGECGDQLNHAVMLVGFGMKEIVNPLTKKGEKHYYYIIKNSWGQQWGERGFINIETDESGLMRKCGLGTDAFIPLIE
- Experiment: Inhibition of Plasmodium falciparum recombinant falcipain 2 expressed in Escherichia coli using Z-Leu-Arg-AMC as substrate at 10 uM incubated for 30 min prior to substrate addition measured for 30 min by fluorometric analysis
Experimental Endpoint: inhibition (%)
Write the answer as a number in %, unit excluded.

Asked: // query inhibition value for entry Cc1cc(N/N=C/c2ccc(O[C@H]3O[C@@H]4O[C@@]5(C)CC[C@H]6[C@H](C)CC[C@@H]([C@H]3C)[C@@]46OO5)cc2)c2cccc(F)c2n1
Given back: 84.7

Asked: // query inhibition value for entry COc1ccc2nc(C)cc(N/N=C/c3ccc(O[C@H]4O[C@@H]5O[C@@]6(C)CC[C@H]7[C@H](C)CC[C@@H]([C@H]4C)[C@@]57OO6)cc3)c2c1
Given back: 93.7

Asked: // query inhibition value for entry Cc1cc(N/N=C/c2ccc(O[C@H]3O[C@@H]4O[C@@]5(C)CC[C@H]6[C@H](C)CC[C@@H]([C@H]3C)[C@@]46OO5)cc2)c2c(Cl)ccc(C)c2n1
Given back: 79.4

Asked: // query inhibition value for entry Cc1cc(N/N=C/c2ccc(O[C@H]3O[C@@H]4O[C@@]5(C)CC[C@H]6[C@H](C)CC[C@@H]([C@H]3C)[C@@]46OO5)cc2)c2ccc(Cl)c(C)c2n1
Given back: 82.6

Asked: // query inhibition value for entry Cc1ccc2nc(C)cc(N/N=C/c3ccc(O[C@H]4O[C@@H]5O[C@@]6(C)CC[C@H]7[C@H](C)CC[C@@H]([C@H]4C)[C@@]57OO6)cc3)c2c1
Given back: 87.2

Asked: // query inhibition value for entry CCc1cccc2c(N/N=C/c3ccc(O[C@H]4O[C@@H]5O[C@@]6(C)CC[C@H]7[C@H](C)CC[C@@H]([C@H]4C)[C@@]57OO6)cc3)cc(C)nc12
Given back: 85.1

Asked: // query inhibition value for entry CC(C)C[C@H](NC(=O)[C@H]1O[C@@H]1C(=O)O)C(=O)NCCCCN=C(N)N
Given back: 92

Asked: // query inhibition value for entry Cc1cc(N/N=C/c2ccc(O[C@H]3O[C@@H]4O[C@@]5(C)CC[C@H]6[C@H](C)CC[C@@H]([C@H]3C)[C@@]46OO5)cc2)c2cccc(C)c2n1
Given back: 84.3

Asked: // query inhibition value for entry Cc1cc(N/N=C/c2ccc(O[C@H]3O[C@@H]4O[C@@]5(C)CC[C@H]6[C@H](C)CC[C@@H]([C@H]3C)[C@@]46OO5)cc2)c2cccc(Br)c2n1
Given back: 94.1

---

- Target Or System: Falcipain 2 (Plasmodium falciparum, UniProt Q9N6S8)
- Experiment: Inhibition of Plasmodium falciparum recombinant falcipain 2 expressed in Escherichia coli using Z-Leu-Arg-AMC as substrate incubated for 30 min prior to substrate addition measured for 30 min by fluorometric analysis
For each record, write down the corresponding pIC50.
Hey, just a heads up that pIC50 is the negative log base 10 of the concentration in molar.

Asked: Identify the measured pIC50 of CCc1cccc2c(N/N=C/c3ccc(O[C@H]4O[C@@H]5O[C@@]6(C)CC[C@H]7[C@H](C)CC[C@@H]([C@H]4C)[C@@]57OO6)cc3)cc(C)nc12 for Falcipain 2 (Plasmodium falciparum, UniProt Q9N6S8).
Given back: 6.28

Asked: Identify the measured pIC50 of Cc1cc(N/N=C/c2ccc(O[C@H]3O[C@@H]4O[C@@]5(C)CC[C@H]6[C@H](C)CC[C@@H]([C@H]3C)[C@@]46OO5)cc2)c2cccc(C)c2n1 for Falcipain 2 (Plasmodium falciparum, UniProt Q9N6S8).
Given back: 5.64

Asked: Identify the measured pIC50 of Cc1cc(N/N=C/c2ccc(O[C@H]3O[C@@H]4O[C@@]5(C)CC[C@H]6[C@H](C)CC[C@@H]([C@H]3C)[C@@]46OO5)cc2)c2cc(F)ccc2n1 for Falcipain 2 (Plasmodium falciparum, UniProt Q9N6S8).
Given back: 6.17

Asked: Identify the measured pIC50 of Cc1cc(N/N=C/c2ccc(O[C@H]3O[C@@H]4O[C@@]5(C)CC[C@H]6[C@H](C)CC[C@@H]([C@H]3C)[C@@]46OO5)cc2)c2cccc(Br)c2n1 for Falcipain 2 (Plasmodium falciparum, UniProt Q9N6S8).
Given back: 6.08

Asked: Identify the measured pIC50 of Cc1cc(N/N=C/c2ccc(O[C@H]3O[C@@H]4O[C@@]5(C)CC[C@H]6[C@H](C)CC[C@@H]([C@H]3C)[C@@]46OO5)cc2)c2ccc(Cl)cc2n1 for Falcipain 2 (Plasmodium falciparum, UniProt Q9N6S8).
Given back: 6.77

Asked: Identify the measured pIC50 of Cc1cc(N/N=C/c2ccc(O[C@H]3O[C@@H]4O[C@@]5(C)CC[C@H]6[C@H](C)CC[C@@H]([C@H]3C)[C@@]46OO5)cc2)c2c(Cl)ccc(C)c2n1 for Falcipain 2 (Plasmodium falciparum, UniProt Q9N6S8).
Given back: 6.41

Asked: Identify the measured pIC50 of Cc1cc(N/N=C/c2ccc(O[C@H]3O[C@@H]4O[C@@]5(C)CC[C@H]6[C@H](C)CC[C@@H]([C@H]3C)[C@@]46OO5)cc2)c2cc(Cl)ccc2n1 for Falcipain 2 (Plasmodium falciparum, UniProt Q9N6S8).
Given back: 6.82

Asked: Identify the measured pIC50 of Cc1cc(N/N=C/c2ccc(O[C@H]3O[C@@H]4O[C@@]5(C)CC[C@H]6[C@H](C)CC[C@@H]([C@H]3C)[C@@]46OO5)cc2)c2ccc(C)c(C)c2n1 for Falcipain 2 (Plasmodium falciparum, UniProt Q9N6S8).
Given back: 6.08

Asked: Identify the measured pIC50 of Cc1cc(N/N=C/c2ccc(O[C@H]3O[C@@H]4O[C@@]5(C)CC[C@H]6[C@H](C)CC[C@@H]([C@H]3C)[C@@]46OO5)cc2)c2cc(Br)ccc2n1 for Falcipain 2 (Plasmodium falciparum, UniProt Q9N6S8).
Given back: 6.59

Asked: Identify the measured pIC50 of Cc1cc(N/N=C/c2ccc(O[C@H]3O[C@@H]4O[C@@]5(C)CC[C@H]6[C@H](C)CC[C@@H]([C@H]3C)[C@@]46OO5)cc2)c2ccccc2n1 for Falcipain 2 (Plasmodium falciparum, UniProt Q9N6S8).
Given back: 6.05

Asked: Identify the measured pIC50 of Cc1ccc2nc(C)cc(N/N=C/c3ccc(O[C@H]4O[C@@H]5O[C@@]6(C)CC[C@H]7[C@H](C)CC[C@@H]([C@H]4C)[C@@]57OO6)cc3)c2c1 for Falcipain 2 (Plasmodium falciparum, UniProt Q9N6S8).
Given back: 6.11

Asked: Identify the measured pIC50 of Cc1cc(N/N=C/c2ccc(O[C@H]3O[C@@H]4O[C@@]5(C)CC[C@H]6[C@H](C)CC[C@@H]([C@H]3C)[C@@]46OO5)cc2)c2cccc(F)c2n1 for Falcipain 2 (Plasmodium falciparum, UniProt Q9N6S8).
Given back: 6.55
